FYI, the data here is from patent US8420676B2.

// values below are reported MIC50
Test system: methicillin resistant Staphylococcus aureus (MRSA)
METHOD DESCRIPTION: Assay for in vitro antibacterial activity, agar dilution (MRSA)
TEST PARAMETERS: read-out: Minimum Inhibitory Concentration (MIC50) MRSA

COMPOUND	DISPLAY UNIT	MIC50
Cn1nnc(-c2ccc(-c3ccc(N4C[C@H](CF)OC4=O)cc3F)cn2)n1 [Compound 18]	µg/mL	1
CC(=O)NC[C@H]1CN(c2ccc(-c3ccc(-c4nc(CC#N)cs4)cc3)c(F)c2)C(=O)O1 [Compound 31]	µg/mL	0.5
Cc1nnc(-c2ccc(-c3ccc(N4C[C@H](COC(=O)[C@H](C)N)OC4=O)cc3F)cn2)o1.Cl [Compound 52]	µg/mL	0.5
Cl.Cn1nnc(-c2ccc(-c3ccc(N4C[C@H](COC(=O)CN)OC4=O)cc3F)cn2)n1 [Compound 45]	µg/mL	0.5
Cc1nnc(-c2ccc(-c3ccc(N4C[C@H](CO)OC4=O)cc3F)cn2)o1 [Compound 16]	µg/mL	0.5
C[C@H](N)C(=O)OC[C@H]1CN(c2ccc(-c3ccc(-c4nnnn4C)nc3)c(F)c2)C(=O)O1.Cl [Compound 65]	µg/mL	0.5
CC(C)[C@H](N)C(=O)OC[C@H]1CN(c2ccc(-c3ccc(-c4nnn(C)n4)nc3)c(F)c2)C(=O)O1.Cl [Compound 43]	µg/mL	0.5
NCC(=O)OCc1csc(-c2ccc(-c3ccc(N4C[C@H](Cn5ccnn5)OC4=O)cc3F)cc2)n1 [Compound 37, trifluoroacetic acid]	µg/mL	0.5
O=C1O[C@@H](Cn2ccnn2)CN1c1ccc(-c2ccc(-c3nc(CO)cs3)cc2)c(F)c1 [Compound 36]	µg/mL	0.5
Cn1nnnc1-c1ccc(-c2ccc(N3C[C@H](COP(=O)(O)O)OC3=O)cc2F)cn1 [Compound 73]	µg/mL	32
Cc1nnc(-c2ccc(-c3ccc(N4C[C@H](Cn5ccnn5)OC4=O)cc3F)cn2)o1 [Compound 13]	µg/mL	0.25
Cn1nnc(-c2ccc(-c3ccc(N4C[C@H](Cn5cncn5)OC4=O)cc3F)cn2)n1 [Compound 4]	µg/mL	2
CC(=O)NC[C@H]1CN(c2ccc(-c3ccc(N4CC(COC(=O)CN)CC4=O)nc3)c(F)c2)C(=O)O1 (stereo partly shown) [Compound 1, trifluoroacetic acid]	µg/mL	1
Cc1nnc(-c2ccc(-c3ccc(N4C[C@H](COP(=O)([O][Na+])[O][Na+])OC4=O)cc3F)cn2)o1 [Compound 60]	µg/mL	0.5
Cn1nnc(-c2ccc(-c3ccc(N4C[C@H](COP(=O)([O][Na+])[O][Na+])OC4=O)cc3F)cn2)n1 [Compound 59]	µg/mL	0.5
Cl.Cn1nnc(-c2ccc(-c3ccc(N4C[C@H](COC(=O)[C@@H]5CCCN5)OC4=O)cc3F)cn2)n1 [Compound 47]	µg/mL	0.5
CC(=O)NC[C@H]1CN(c2ccc(-c3ccc(C4=NC(CO)CO4)cc3)c(F)c2)C(=O)O1 (stereo partly shown) [Compound 26]	µg/mL	0.5
CC(=O)NC[C@H]1CN(c2ccc(-c3ccc(-n4cc(COC(=O)CN)nn4)nc3)c(F)c2)C(=O)O1 [Compound 2, trifluoroacetic acid]	µg/mL	0.5
NCC(=O)OC[C@H]1CN(c2ccc(-c3ccc(-n4nccn4)nc3)c(F)c2)C(=O)O1 [Compound 35, trifluoroacetic acid]	µg/mL	1
NCC(=O)OC[C@H]1CN(c2ccc(-c3ccc(-n4ccnn4)nc3)c(F)c2)C(=O)O1 [Compound 22, trifluoroacetic acid]	µg/mL	1
O=C1O[C@@H](Cn2ccnn2)CN1c1ccc(-c2ccc(-n3cncn3)nc2)c(F)c1 [Compound 14]	µg/mL	0.25
CC(=O)NC[C@H]1CN(c2ccc(-c3ccc(-c4nc(CO)cs4)cc3)c(F)c2)C(=O)O1 [Compound 28]	µg/mL	0.5
CN(C)CC1CN(c2ccc(-c3ccc(-c4nnn(C)n4)nc3)c(F)c2)C(=O)O1 (stereo in doubt) [Compound 40]	µg/mL	4
Cl.Cn1nnnc1-c1ccc(-c2ccc(N3C[C@H](COC(=O)CN)OC3=O)cc2F)cn1 [Compound 63]	µg/mL	0.5
CC(C)[C@H](N)C(=O)OC[C@H]1CN(c2ccc(-c3ccc(-c4nnnn4C)nc3)c(F)c2)C(=O)O1.Cl [Compound 67]	µg/mL	0.5
N#CCc1csc(-c2ccc(-c3ccc(N4C[C@H](COC(=O)CN)OC4=O)cc3F)cc2)n1 [Compound 34, trifluoroacetic acid]	µg/mL	1
CC(=O)NC[C@H]1CN(c2ccc(-c3ccc(-c4cc(COC(=O)CN)on4)nc3)c(F)c2)C(=O)O1 [Compound 3, trifluoroacetic acid]	µg/mL	0.25
Cn1nnc(-c2ccc(-c3ccc(N4C[C@H](Cn5ccnn5)OC4=O)cc3F)cn2)n1 [Compound 9]	µg/mL	0.25

----------
// values below are reported MIC50
Tested on: vancomycin resistant Enterococci (VRE)
METHOD DESCRIPTION: Assay for in vitro antibacterial activity, agar dilution (VRE)
TEST PARAMETERS: Enterococcus, read-out: Minimum Inhibitory Concentration (MIC50) VRE
MEASUREMENT TYPE: MIC50 (µg/mL)

In [3]: df
Out[3]:
                                    compound                     experimental_target  measurement_type  display_unit  observed
 0  Cc1nnc(-c2ccc(-c3ccc(N4C[C@H](Cn5ccnn5)OC4=O)cc3F)cn2)o1  vancomycin resistant Enterococci (VRE)             MIC50         µg/mL      0.25
 1  N#CCc1csc(-c2ccc(-c3ccc(N4C[C@H](CO)OC4=O)cc3F)cc2)n1  vancomycin resistant Enterococci (VRE)             MIC50         µg/mL         1
 2  Cl.Cn1nnc(-c2ccc(-c3ccc(N4C[C@H](COC(=O)CN)OC4=O)cc3F)cn2)n1  vancomycin resistant Enterococci (VRE)             MIC50         µg/mL      0.25
 3  CC(=O)NC[C@H]1CN(c2ccc(-c3ccc(-c4nc(CC#N)cs4)cc3)c(F)c2)C(=O)O1  vancomycin resistant Enterococci (VRE)             MIC50         µg/mL       0.5
 4  Cc1nnc(-c2ccc(-c3ccc(N4C[C@H](COC(=O)[C@@H]5CCCN5)OC4=O)cc3F)cn2)o1.Cl  vancomycin resistant Enterococci (VRE)             MIC50         µg/mL         1
 5  Cn1nnc(-c2ccc(-c3ccc(N4C[C@H](COC(=O)CCN)OC4=O)cc3F)cn2)n1  vancomycin resistant Enterococci (VRE)             MIC50         µg/mL      0.25
 6  C[C@H](N)C(=O)OC[C@H]1CN(c2ccc(-c3ccc(-c4nnnn4C)nc3)c(F)c2)C(=O)O1.Cl  vancomycin resistant Enterococci (VRE)             MIC50         µg/mL      0.25
 7  Cc1nnc(-c2ccc(-c3ccc(N4C[C@H](COC(=O)[C@@H](N)C(C)C)OC4=O)cc3F)cn2)o1.Cl  vancomycin resistant Enterococci (VRE)             MIC50         µg/mL         1
 8  CNC[C@H]1CN(c2ccc(-c3ccc(-c4nnn(C)n4)nc3)c(F)c2)C(=O)O1  vancomycin resistant Enterococci (VRE)             MIC50         µg/mL         8
 9  Cc1nnc(-c2ccc(-c3c(F)cc(N4C[C@H](CO)OC4=O)cc3F)cn2)o1  vancomycin resistant Enterococci (VRE)             MIC50         µg/mL         1
10  NCC(=O)OC[C@H]1CN(c2ccc(-c3ccc(-n4ccnn4)nc3)c(F)c2)C(=O)O1  vancomycin resistant Enterococci (VRE)             MIC50         µg/mL         1
11  Cn1nnnc1-c1ccc(-c2ccc(N3C[C@H](COP(=O)([O-])[O-])OC3=O)cc2F)cn1.[Na+].[Na+]  vancomycin resistant Enterococci (VRE)             MIC50         µg/mL      0.25
12  Cc1nnc(-c2ccc(-c3ccc(N4C[C@H](COC(=O)CCN)OC4=O)cc3F)cn2)o1.Cl  vancomycin resistant Enterococci (VRE)             MIC50         µg/mL         1
13  CC(=O)NC[C@H]1CN(c2ccc(N3CCOCC3)c(F)c2)C(=O)O1 [Zyvox, reference compound]  vancomycin resistant Enterococci (VRE)             MIC50         µg/mL         2
14  CN(C)CC1CN(c2ccc(-c3ccc(-c4nnn(C)n4)nc3)c(F)c2)C(=O)O1 (stereo in doubt)  vancomycin resistant Enterococci (VRE)             MIC50         µg/mL         8
15  O=C1O[C@@H](CO)CN1c1ccc(-c2ccc(-n3nccn3)nc2)c(F)c1  vancomycin resistant Enterococci (VRE)             MIC50         µg/mL         1
16  C[C@H](N)C(=O)OC[C@H]1CN(c2ccc(-c3ccc(-c4nnn(C)n4)nc3)c(F)c2)C(=O)O1.Cl  vancomycin resistant Enterococci (VRE)             MIC50         µg/mL      0.25
17  CC(=O)NC[C@H]1CN(c2ccc(-c3ccc(N4CCC(OC(=O)CN)C4=O)nc3)c(F)c2)C(=O)O1 (some centres unmarked)  vancomycin resistant Enterococci (VRE)             MIC50         µg/mL      0.25
18  O=C1O[C@@H](Cn2ccnn2)CN1c1ccc(-c2ccc(-c3nc(CO)cs3)cc2)c(F)c1  vancomycin resistant Enterococci (VRE)             MIC50         µg/mL       0.5
19  CC(=O)NC[C@H]1CN(c2ccc(-c3ccc(N4CC(COC(=O)CN)CC4=O)nc3)c(F)c2)C(=O)O1 (some centres unmarked)  vancomycin resistant Enterococci (VRE)             MIC50         µg/mL      0.25
20  CC(=O)NC[C@H]1CN(c2ccc(-c3ccc(-n4cc(COC(=O)CN)nn4)nc3)c(F)c2)C(=O)O1  vancomycin resistant Enterococci (VRE)             MIC50         µg/mL     0.125
21  CC(=O)NC[C@H]1CN(c2ccc(-c3ccc(-c4cc(COC(=O)CN)on4)nc3)c(F)c2)C(=O)O1  vancomycin resistant Enterococci (VRE)             MIC50         µg/mL      0.25
22  Cn1nnc(-c2ccc(-c3ccc(N4C[C@H](Cn5nccn5)OC4=O)cc3F)cn2)n1  vancomycin resistant Enterococci (VRE)             MIC50         µg/mL        16
23  CC(C)[C@H](N)C(=O)OC[C@H]1CN(c2ccc(-c3ccc(-c4nnn(C)n4)nc3)c(F)c2)C(=O)O1.Cl  vancomycin resistant Enterococci (VRE)             MIC50         µg/mL      0.25
24  Cc1nc(-c2ccc(-c3ccc(N4C[C@H](COC(=O)CN)OC4=O)cc3F)cc2)oc1C  vancomycin resistant Enterococci (VRE)             MIC50         µg/mL         2
25  CC(=O)NC[C@H]1CN(c2ccc(-c3ccc(-c4nc(C)c(C)o4)nc3)c(F)c2)C(=O)O1  vancomycin resistant Enterococci (VRE)             MIC50         µg/mL         1
26  Cc1nnc(-c2ccc(-c3ccc(N4C[C@H](COC(=O)CN)OC4=O)cc3F)cn2)o1.Cl  vancomycin resistant Enterococci (VRE)             MIC50         µg/mL         1
27  O=C1O[C@@H](Cn2ccnn2)CN1c1ccc(-c2ccc(-n3cncn3)nc2)c(F)c1  vancomycin resistant Enterococci (VRE)             MIC50         µg/mL      0.25
28  Cc1nnc(-c2ccc(-c3ccc(N4C[C@H](CO)OC4=O)cc3F)cn2)o1  vancomycin resistant Enterococci (VRE)             MIC50         µg/mL         1
